Below: a set of entries, each annotated with reported self-cleavage.
B1: LINE1-full (parent)
chain: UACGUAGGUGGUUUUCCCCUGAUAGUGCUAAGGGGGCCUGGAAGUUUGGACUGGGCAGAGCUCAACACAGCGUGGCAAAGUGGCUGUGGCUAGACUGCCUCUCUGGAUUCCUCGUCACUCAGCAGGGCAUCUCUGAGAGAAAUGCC

variants of: B1; assay: self-cleavage, relative activity (ratio to wild type); higher = more cleavage; in vitro, sequencing; the parent is a self-cleaving ribozyme
Keep the answer to the number alone.

# variant key, attribute measured, result
rows = [
    ("U20C A94G", "self-cleavage", 0.39),
]

The variant A30U U87C showed self-cleavage equal to 0.23

The variant U20C G48U showed self-cleavage equal to 1.27

The variant U5C G36C showed self-cleavage equal to 1.25

The variant G48U G88C showed self-cleavage equal to 0.04

The variant U5A A129U showed self-cleavage equal to 1.47

The variant A6U A92U showed self-cleavage equal to 0.47

The variant A50G U132C showed self-cleavage equal to 1.07

The variant U5A A59U showed self-cleavage equal to 0.52

The variant A22U G60U showed self-cleavage equal to 0.05

The variant U29C A65C showed self-cleavage equal to 0.1

The variant U109A A121G showed self-cleavage equal to 1.82

The variant `U115G` showed self-cleavage equal to 1.5

Values compiled from the RNAGym collection of RNA variant scans (doi:10.7554/elife.90254).
